- tested_target: myeloperoxidase (MPO) (Homo sapiens (Human))
- Sequence (P05164 49-745): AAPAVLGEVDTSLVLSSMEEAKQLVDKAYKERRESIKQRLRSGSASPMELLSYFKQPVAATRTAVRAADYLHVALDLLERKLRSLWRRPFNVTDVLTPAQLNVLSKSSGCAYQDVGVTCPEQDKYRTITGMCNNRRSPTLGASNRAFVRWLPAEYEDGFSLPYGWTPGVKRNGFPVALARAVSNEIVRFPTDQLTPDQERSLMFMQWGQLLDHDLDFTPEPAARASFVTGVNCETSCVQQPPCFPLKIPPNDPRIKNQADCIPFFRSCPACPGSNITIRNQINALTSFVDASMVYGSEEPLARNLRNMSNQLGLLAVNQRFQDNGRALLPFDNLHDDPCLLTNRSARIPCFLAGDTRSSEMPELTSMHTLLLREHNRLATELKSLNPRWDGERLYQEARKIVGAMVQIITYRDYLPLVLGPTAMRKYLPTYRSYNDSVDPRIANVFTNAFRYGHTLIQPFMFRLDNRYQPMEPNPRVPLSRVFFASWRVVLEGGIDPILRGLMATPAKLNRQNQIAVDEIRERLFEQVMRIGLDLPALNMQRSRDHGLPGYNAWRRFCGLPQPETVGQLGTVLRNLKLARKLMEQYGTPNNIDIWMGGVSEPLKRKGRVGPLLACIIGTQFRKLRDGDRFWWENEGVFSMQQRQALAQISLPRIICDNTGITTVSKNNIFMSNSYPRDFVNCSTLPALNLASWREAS
- protocol_notes: MPO peroxidation assay (Amplex Red assay)
- Type: biochemical
- measurement_context: potency range class
pIC50: −log10 of the molar value.
Measured pIC50 accompanies every entry in the list below.

I'd like to know its pIC50. The compound in question is COc1ccc(CN2CCc3ccc(Cn4cc(Cc5cc(N)nc6[nH]nnc56)cn4)cc3C2=O)cc1 [Example 287]
7.00 to 9.00

I'd like to know its pIC50. The compound in question is Nc1cc(Cc2cnn(Cc3ccc(F)c(Br)c3)c2)c2nn[nH]c2n1 [Example 277]
7.00 to 9.00

I'd like to know its pIC50. The compound in question is Nc1cc(Cc2cnn(Cc3ccc(-n4cccn4)cc3)c2)c2nn[nH]c2n1 [Example 56]
7.00 to 9.00

I'd like to know its pIC50. The compound in question is Nc1cc(Cc2cn(Cc3cccc(C4CCNCC4)c3)nc2C(F)(F)F)c2nn[nH]c2n1 [Example 284]
6.00 to 7.00

I'd like to know its pIC50. The compound in question is Nc1cc(Cc2cnn(-c3cccc4cccnc34)c2)c2nn[nH]c2n1 [Example 16]
6.00 to 7.00

I'd like to know its pIC50. The compound in question is CC(C)(C)OC(=O)N1CCc2ccc(Cn3cc(Cc4cc(N)nc5[nH]nnc45)cn3)cc2C1 [Example 148]
6.00 to 7.00

I'd like to know its pIC50. The compound in question is Nc1cc(Cc2cnn(-c3ccccc3F)c2)c2nn[nH]c2n1 [Example 4]
7.00 to 9.00

I'd like to know its pIC50. The compound in question is Nc1cc(Cc2cnn(Cc3cccc4c3Cc3ccccc3-4)c2)c2nn[nH]c2n1 [Example 266]
7.00 to 9.00
